# System: A549-ACE2 infected with SARS-CoV-2
# TEST NAME: SARS-CoV-2 infection rate relative to DMSO; higher = more infection
# RECORDED CONDITIONS: 0.3 µM; 24 h
READOUT TYPE: SARS-CoV-2 infection rate

COMPOUND | SUBJECT OF TEST | DATA VALUE
COc1cc(COc2cc(N)c(Cl)cc2C(=O)CCC2CCN(CCNS(C)(=O)=O)CC2)cc(OC)c1 | A549-ACE2 infected with SARS-CoV-2 | 102%
COc1cc(N2CCN(C)CC2)ccc1Nc1nccc(-c2cn(C)c3cnccc23)n1 | A549-ACE2 infected with SARS-CoV-2 | 103%
COc1cc(-c2cc(-c3cccc(O)c3)cnc2N)cc(OC)c1OC | A549-ACE2 infected with SARS-CoV-2 | 101%
S=C(S)N1CCCC1 [pyrrolidine-dithiocarbamate] | A549-ACE2 infected with SARS-CoV-2 | 93%
CCN1CCN(c2ccc(Nc3cc(N(C)C(=O)Nc4c(Cl)c(OC)cc(OC)c4Cl)ncn3)cc2)CC1 | A549-ACE2 infected with SARS-CoV-2 | 100%

----------
# Tested on: U2OS
# TEST NAME: cell viability relative to DMSO; higher = less toxic
# RECORDED CONDITIONS: 72 h; 100 nM
Where a name gives a salt, the structure may show the parent alone.
READOUT TYPE: cell viability

COMPOUND | SUBJECT OF TEST | DATA VALUE
N[C@@H](CCC(=O)N[C@@H](CS)C(=O)NCC(=O)O)C(=O)O [glutathione] | U2OS | 99.5%
C=CCN1CC[C@]23c4c5ccc(O)c4O[C@H]2C(=O)CC[C@@]3(O)[C@H]1C5 [NALOXONE HYDROCHLORIDE] | U2OS | 102%
Oc1cc(CNC(=S)/C=C/c2cc(O)c(O)c(Br)c2)cc(O)c1O [NT157] | U2OS | 99.8%
COc1cccc(-c2cc(F)ccc2[C@H]2Cc3nc(N)nc(C)c3C(=O)N2)n1 [NVP-HSP990] | U2OS | 19.3%
O=C(NCC1CCCCN1)c1cc(OCC(F)(F)F)ccc1OCC(F)(F)F (stereo not drawn) [flecainide] | U2OS | 103%
O=C(Nc1cnn2ccc(N3CCC[C@@H]3c3cc(F)ccc3F)nc12)N1CC[C@H](O)C1 [larotrectinib] | U2OS | 97.9%
Cc1c(C(N)=O)cc([N+](=O)[O-])cc1[N+](=O)[O-] [dinitolmide] | U2OS | 105%
COC[C@H]1OC(=O)c2coc3c2[C@@]1(C)C1=C(C3=O)[C@@H]2CCC(=O)[C@@]2(C)C[C@H]1OC(C)=O [wortmannin] | U2OS | 94.1%
CSc1cc2c(cc1C(F)(F)F)N(C(=O)Nc1cccnc1)CC2 | U2OS | 108%
Oc1ccc(CC2NCCc3cc(O)c(O)cc32)cc1 (stereo not drawn) [higenamine] | U2OS | 97.5%
CC1(C)O[C@@H]2[C@@H](CO[C@@]3(COS(N)(=O)=O)OC(C)(C)O[C@@H]23)O1 [topiramate] | U2OS | 98.1%
Cn1c(=O)cnn(CCCCN2CCN(c3ncccn3)CC2)c1=O | U2OS | 103%
C[C@@H](c1ccc2nccn2c1)n1nnc2ncc(-c3cnn(C)c3)nc21 [savolitinib] | U2OS | 98.9%
C[C@H]1CO[C@@H]2Cn3cc(C(=O)NCc4ccc(F)cc4F)c(=O)c(O)c3C(=O)N12 | U2OS | 99.4%
O=C(Cc1ccc(-c2ccc(OCCN3CCOCC3)cc2)cn1)NCc1ccccc1 [KX2-391] | U2OS | 96.4%
Clc1ccc(C(c2ccccc2Cl)C(Cl)Cl)cc1 (stereo not drawn) [mitotane] | U2OS | 98.6%
C[C@H](N)Cc1c[nH]cn1 [alpha-methylhistamine-dihydrobromide-(S)-(+)] | U2OS | 101%
Nc1nc(=O)c(Br)c(-c2ccccc2)[nH]1 [bropirimine] | U2OS | 102%

Measured values drawn from the supplement of paper PMC13380429 for this set.
